// values below are reported pKd
targetSystem: T1, biotinylated human DLL3 protein expressed as a human IgG1 fusion protein (human, UniProt Q9NYJ7 27-492, limits assumed, biotinylated)
T1 sequence: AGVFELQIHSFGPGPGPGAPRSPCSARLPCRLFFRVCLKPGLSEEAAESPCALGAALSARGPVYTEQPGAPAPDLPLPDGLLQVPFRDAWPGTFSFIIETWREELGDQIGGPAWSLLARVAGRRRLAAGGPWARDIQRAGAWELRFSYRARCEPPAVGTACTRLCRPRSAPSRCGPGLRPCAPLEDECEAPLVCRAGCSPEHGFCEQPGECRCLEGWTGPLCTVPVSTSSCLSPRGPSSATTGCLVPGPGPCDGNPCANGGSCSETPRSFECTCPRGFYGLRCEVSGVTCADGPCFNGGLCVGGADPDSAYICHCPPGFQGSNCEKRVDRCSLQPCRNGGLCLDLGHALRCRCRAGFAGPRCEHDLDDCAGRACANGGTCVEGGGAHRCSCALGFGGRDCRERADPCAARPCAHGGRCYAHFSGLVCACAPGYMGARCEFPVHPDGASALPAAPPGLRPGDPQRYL
experimentNotes: Octet BLI, single 50 nM
Convention used: pKd is expressed as -log10 of the molar concentration.

Examples from the recorded data:
2C07 anti-DLL3 trispecific protein (other, not shown: linker 1808, anti-albumin sdAb, linker 1808, anti-CD3 fragment, His6 1819) EVQLVESGGGLVQPGGSLTLSCVASGSTSSINAMAWYRRAPGKQRELVAGISSDGSKVYADSVKGRFTISRDNAKNSVYLQMNSLRAEDTAVYYCYYFRSVSGSSMRYWGQGTLVTVSS
8.21
1B05 anti-DLL3 trispecific protein (other, not shown: linker 1808, anti-albumin sdAb, linker 1808, anti-CD3 fragment, His6 1819) EVQLVESGGGLVQPGGSLTLSCVASGSTSSINAMAWYRRAPGKQRELVAGISSDGSKVYADSVKGRFTISRDNAKNSVYLQMNSLRAEDTAVYYCYYYRTVSGSSMRYWGQGTLVTVSS
8.10
2A04 anti-DLL3 trispecific protein (other, not shown: linker 1808, anti-albumin sdAb, linker 1808, anti-CD3 fragment, His6 1819) EVQLVESGGGLVQPGGSLTLSCVASGSTSSINAMAWYRRAPGKQRELVAGISSDGSKVYTDSVKGRFTISRDNAKNSVYLQMNSLRAEDTAVYYCYYFRTTSGSSMRYWGQGTLVTVSS
8.25

Please find the next binder below.
**Query** Quick one: pKd of 4D011 anti-DLL3 trispecific protein (other, also called 4D11; not shown: linker 1808, anti-albumin sdAb, linker 1808, anti-CD3 fragment, His6 1819) EVQLVESGGGLVQPGGSLTLSCAASGSSVRFLSMAWYRQAPGKKRELVAGISVDGSTDYIDSVKGRFTISRDNAKNSVYLQMNSLRAEDTAVYYCYAYRWRTRYTYWGQGTLVTVSS ?
**Result** 8.24
